assay_info: amyloid nucleation score (Sup35N fusion, yeast selection) (log enrichment); library NNK1; higher = more nucleation; inactive = no reads after selection;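 also: zero at mode of non-aggregating sequences after 7 days selection at 30°C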
measurement_type: amyloid nucleation score
// keep it numeric: no unit symbol after the value

sequence_record | observed_value
IISLVNVWQNMCR | 5.15
VTSYFKIRLCFPRGMASCTR | 3.37

Please find the next sequence below.
amyloid nucleation score in this record for FQKYGQCSHYRVVDRKLQCS : 0.314

* * *

assay_info: amyloid nucleation score (Sup35N fusion, yeast selection) (log enrichment); library NNK1; higher = more nucleation; inactive = no reads after selection
Recorded amyloid nucleation score for the following substances
// keep it numeric: no unit symbol after the value

The cases that follow already have their amyloid nucleation score on record.
substance | observed_value
YICEFMIRTMKQPWPSKGEG | 0.542
TPKLIAV | -2.05
SMDNYIVNSSTVWPSSFSLK | 4.73
FYTISFLAIIATENIFCSSS | 4.42
LIHVRCSLVQCANSELQGAG | 2.65

Please find the next substance below.
amyloid nucleation score in this record for LGYEGWYTRVIYGKVALWME : -0.215
